Record form. Attribute: % Change Compared to pH 7.4 + Calcium. Fill in for each entry.
# ASSAY_TARGET: T1, recombinant, soluble human ASGR-1 (human, UniProt P07306 62-291)
# T1 construct: biotinylated in the binning assay; also called soluble huASGR-1; Soluble ASGR-1 (Amgen)
# T1 sequence: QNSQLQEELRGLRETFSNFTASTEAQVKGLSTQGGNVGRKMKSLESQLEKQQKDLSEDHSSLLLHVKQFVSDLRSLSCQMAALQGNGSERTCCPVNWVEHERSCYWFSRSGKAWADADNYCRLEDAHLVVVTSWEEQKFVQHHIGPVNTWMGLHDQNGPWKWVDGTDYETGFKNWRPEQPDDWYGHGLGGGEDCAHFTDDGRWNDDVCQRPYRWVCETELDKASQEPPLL
# EXPERIMENT: Octet BLI dissociation, pH 5.6 minus calcium
Answers are plain numbers, in %.

binder="48B12 (antibody, V domains shown, hybridoma mAb) VH: EVQLLESGGGLVQPGGSLRLSCAASGFTFSSYAMNWVRQAPGKGLEWVSAISGRGGNTFYADSVKGRFTISRDNSKNTLYLQMNSLRAEDTAVYYCAKRETYNWNYEGFDYWGQGTLVTVSS VL: SYELTQPPSVSVSPGQTARITCSGDALPKKYAYWYQQKSGQAPVLVIYEDSKRPSGIPERFSGSSSGTMATLTISGAQVEDEADYYCNSTDSSGNHVVFGGGTKLTVL" measurement_type="% Change Compared to pH 7.4 + Calcium" measurement_units=% endpoint_result=0
binder="70D1 (antibody, V domains shown, hybridoma mAb) VH: QVQLVQSGAEVKKPGASVKVSCKASGYTFTGYHMHWVRQAPGQGLEWMGWINPNSNATNYAQKFQGRVTMTRDTSISTAYMELSRLRSDDTAVYYCARDSISSWDYWGQGTLVTVSS VL: DIQMTQSPSSVSASVGDRVTITCRASQGVSRWLAWYQQKPGKAPKLLIYAASSLQSGVPSRFSGSGSGTDFTVTISSLQPEDFATYYCQQANSFPFTFGPGTKVDIK" measurement_type="% Change Compared to pH 7.4 + Calcium" measurement_units=% endpoint_result=29

Below are some binders; for each one, tell me its % Change Compared to pH 7.4 + Calcium.
1. 45B4 (antibody, V domains shown, hybridoma mAb) VH: QVQLVESGGGVVQPGRSLRLSCAASGFTFSDCVMHWVRQAPGKGLEWVAVIWYDGSNKYYADSVKGRFTISRDNSKNTLYLQMNSLRAEDTAVYYCARERYSSGLYDYGMDVWGQGTTVTVSS VL: DIQMTQSPSSLSASVGDRVTFTCRASQGIRDDLGWYQQKPGKAPKRLIYAASSLQSGVPSRFSGSGSGTEFTLTISSLQPEDFATYYCLQHYSYPRTFGQGTKVEIK
2. 5E5 (antibody, V domains shown, hybridoma mAb) VH: QVQLVESGGGVVQPGRSLRLSCAASGFTFSNYVMHWVRQAPGKGLEWVAVIWYDGSNKYYADSVKGRFTISRDNSKNTLYLQMNSLRAEDTAVYYCTREVYSSGWYDYGMDVWGQGTTVTVSS VL: DIQMTQSPSSLSASVGDRVTITCRASQGIRNDLGWYQQKPGKAPKRLIYAASSLQSGVPSRFSGSGSGTEFTLTISSLQPEDFATYYCLQHYSYPRTFGQGTKVEVK

[23, 42]
